Measured values drawn from PubChem BioAssay (Tox21) for this set.

assay: qHTS assay to identify small molecule antagonists of the thyroid receptor (TR) signaling pathway (AID 743065); conditions: GH3.TRE-Luc, T3-stimulated luciferase inhibition, 23.5 h; series mostly up to 70.3 µM; note: nearly all actives have a fitted effect of over 55% in size
Inconclusive results are not listed. Activity calls are given as the source filed them. Calls come from the whole dose curve; as a rule, active = well fitted inhibition curve with a large enough effect in the repeat runs; inconclusive = weak or mixed curves; inactive = no such curve, though single readings can be large or run the other way.
recorded_metric: outcome

> print(dat)
                                   molecule  recorded.metric  measured.result
1  O=C(O)CC/C=C\CC[C@@H]1[C@@H](N2CCCCC2)[C@@H](O)C[C@@H]1OCc1ccc(-c2ccccc2)cc1          outcome         inactive
2  CC1(O)CCC(C(C)(C)O)CC1 (stereo not given)          outcome         inactive
3  O=C(O)c1cc2ccccc2c(Cc2c(O)c(C(=O)O)cc3ccccc23)c1O          outcome         inactive
4  CO[C@@]1(NC(=O)C2SC(=C(C(N)=O)C(=O)O)S2)C(=O)N2C(C(=O)O)=C(CSc3nnnn3C)CS[C@@H]21 (stereo not given in full)          outcome         inactive
5  Cc1ncc(C[n+]2csc(CCOP(=O)(O)OP(=O)(O)O)c2C)c(N)n1          outcome         inactive

* * *

test: qHTS assay to identify small molecule antagonists of the thyroid receptor (TR) signaling pathway (AID 743065); conditions: GH3.TRE-Luc, T3-stimulated luciferase inhibition, 23.5 h; series mostly up to 70.3 µM; note: nearly all actives have a fitted effect of over 55% in size
Inconclusive results are not listed. Activity calls are given as the source filed them. Calls follow the shape of the dose curve; as a rule, active = well fitted inhibition curve with a large enough effect in the repeat runs; inconclusive = weak or mixed curves; inactive = no such curve, though single readings can be large or run the other way. Positions of bridges follow the written chain, without caps; N, C: chain ends. Non-standard residues stand in square brackets, D forms with d. Residues, ends and D or L forms follow the SMILES beside them. *: point of attachment. X2 = CC[C@H](C)CCCCC(=O)*; Dab = NCC[C@H](N)C(=O)O
Outcomes: Yes for active, No for inactive

compound	assigned_label
CC(C)(C)CC(=O)OCC(=O)[C@@]12OC(C)(C)O[C@@H]1C[C@H]1[C@@H]3CCC4=CC(=O)C=C[C@]4(C)[C@@]3(F)[C@@H](O)C[C@@]12C	No
Cc1cc(-c2ccc(N=Nc3c(S(=O)(=O)O)cc4cc(S(=O)(=O)O)cc(N)c4c3O)c(C)c2)ccc1N=Nc1c(S(=O)(=O)O)cc2cc(S(=O)(=O)O)cc(N)c2c1O	Yes
CN=C(NC)NCc1ccccc1	No
CC[C@H](C)CCCCC(=O)N[C@@H](CCN)C(=O)N[C@H](C(=O)N[C@@H](CCN)C(=O)N[C@H]1CCNC(=O)[C@@H]([C@H](C)O)NC(=O)[C@H](CCN)NC(=O)[C@H](CCN)NC(=O)[C@H](CC(C)C)NC(=O)[C@@H](CC(C)C)NC(=O)[C@H](CCN)NC1=O)[C@@H](C)O (X2-[Dab]T[Dab][Dab][Dab][dL]L[Dab][Dab][dT]; lactam 4-C)	No
CCCCCCCCCCCCCCCCSCC(COC)COP(=O)([O-])OCC[N+](C)(C)C (configuration not stated)	Yes
CC1(S(=O)(=O)O)CC(=O)c2ccccc2C1=O (configuration not stated)	Yes
COc1ccc(C(=O)CCC(=O)O)c2ccccc12	No

* * *

assay: qHTS assay to identify small molecule phospholipidosis (PLD) inducers (AID 1259344); conditions: HepG2 phospholipidosis, LipidTOX Red imaging, 24 h; series mostly up to 38.3 µM
Records with an inconclusive call do not appear. Calls of active or inactive are those of the source. Calls come from the whole dose curve; as a rule, active = well fitted activation curve with a large enough effect; inconclusive = small, poorly fitted or top-dose-only effect; inactive = flat fitted curve, though single readings scatter.
recorded_metric: PLD induction

> print(dat)
                                    compound  measured.result
 1  C[C@H](CCCC(C)(C)O)[C@H]1CC[C@H]2[C@@H]3CC=C4C[C@@H](O)CC[C@]4(C)[C@H]3CC[C@]12C         inactive
 2                         O=P(O)(O)OC(CO)CO         inactive
 3  CCCCc1cc2c(=O)c(C(=O)OC)c[nH]c2cc1OCc1ccccc1         inactive
 4  CCOc1cc(-c2nccc3cc(OC)c(OC)cc23)cc(OCC)c1OCC         inactive
 5  CCOC(=O)Oc1c(OC)cc(C(=O)O[C@@H]2C[C@@H]3CN4CCc5c([nH]c6cc(OC)ccc56)[C@H]4C[C@@H]3[C@H](C(=O)OC)[C@H]2OC)cc1OC         inactive
 6                        C=CCCCCCCCCC(=O)OC         inactive
 7  CC(CCc1ccc(O)cc1)NCC(O)c1ccc(O)cc1 (stereo not given)         inactive
 8  CC(=O)Nc1c(I)c(C(=O)N[C@H]2C(O)O[C@H](CO)[C@@H](O)[C@@H]2O)c(I)c(N(C)C(C)=O)c1I (stereo not given in full)         inactive
 9  O=[N+]([O-])O[C@@H]1CO[C@H]2[C@@H]1OC[C@@H]2O         inactive
10            CCCOc1cc(N)ccc1C(=O)OCCN(CC)CC         inactive
